# Assay target: T1, hGITR.mFc (human)
# T1 construct: soluble dimeric construct with mouse Fc; also called dimeric human GITR
# T1 chain: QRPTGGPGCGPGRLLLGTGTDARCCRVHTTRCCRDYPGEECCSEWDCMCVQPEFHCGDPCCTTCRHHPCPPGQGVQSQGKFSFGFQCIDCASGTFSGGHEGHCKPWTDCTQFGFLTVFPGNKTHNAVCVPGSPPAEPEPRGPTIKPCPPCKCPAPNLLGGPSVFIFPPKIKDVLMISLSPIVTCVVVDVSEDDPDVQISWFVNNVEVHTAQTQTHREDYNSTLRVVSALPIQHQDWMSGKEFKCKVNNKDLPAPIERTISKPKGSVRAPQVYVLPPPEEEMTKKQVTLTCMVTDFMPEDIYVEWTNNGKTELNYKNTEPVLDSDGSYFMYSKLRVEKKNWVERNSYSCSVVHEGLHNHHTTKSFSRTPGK
# Method notes: SPR 37C, mAb capture
Parameter measured: log10(koff) (log10 of the value in s⁻¹)
In our notation, the value equals log10 of koff in s⁻¹.

Provide log10(koff) value for the following binder: H4H14470P (antibody, human IgG4, V domains shown, human IgG4 (H4H)) VH: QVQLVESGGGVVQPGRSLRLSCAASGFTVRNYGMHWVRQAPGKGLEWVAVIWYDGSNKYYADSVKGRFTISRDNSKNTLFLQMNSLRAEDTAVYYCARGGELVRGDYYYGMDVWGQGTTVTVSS VL: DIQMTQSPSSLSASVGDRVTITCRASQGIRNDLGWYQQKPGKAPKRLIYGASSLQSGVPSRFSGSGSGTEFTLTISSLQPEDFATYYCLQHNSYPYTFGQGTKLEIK
-2.98

Return reported log10(koff). Input binder: H4H14528P (antibody, human IgG4, V domains shown, human IgG4 (H4H)) VH: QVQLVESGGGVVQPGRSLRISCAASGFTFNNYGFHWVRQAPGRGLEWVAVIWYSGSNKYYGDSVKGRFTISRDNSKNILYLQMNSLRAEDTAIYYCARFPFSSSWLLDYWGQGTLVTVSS VL: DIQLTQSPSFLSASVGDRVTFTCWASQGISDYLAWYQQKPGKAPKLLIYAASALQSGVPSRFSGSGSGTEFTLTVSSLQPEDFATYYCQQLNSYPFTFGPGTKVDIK
-2.75

In one line, give reported log10(koff) of the entry H1H14495P (antibody, human IgG1, V domains shown, human IgG1 (H1H)) VH: QVQLVESGGGAVQPGTSLRLSCAASGFTFSSFGMHWVRQAPGKGLEWVSVIWYEGSNKYYADSVKGRFTISRDNSRNTLSLQMDSLRVEDTAVYYCARGGELGVNYYYDMDVWGQGTTVTVSS VL: DIQMTQSPSSLSASVGDRVTITCRASQDIKNDLGWFQQKAGKAPKRLFYATSSLQSGVPSRFSGSGSGTEFTLTISSLQPEDFATYYCLQVHSYPRTFGQGTKVEIK .
-3.96

Give log10(koff) for the following binder: H1H14524P (antibody, human IgG1, V domains shown, human IgG1 (H1H)) VH: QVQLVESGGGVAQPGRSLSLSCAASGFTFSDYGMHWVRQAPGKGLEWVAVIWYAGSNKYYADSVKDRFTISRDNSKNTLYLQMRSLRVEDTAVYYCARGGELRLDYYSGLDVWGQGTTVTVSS VL: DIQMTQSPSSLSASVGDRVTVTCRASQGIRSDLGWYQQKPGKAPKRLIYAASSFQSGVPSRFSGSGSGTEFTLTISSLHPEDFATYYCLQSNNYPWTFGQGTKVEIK
-3.87

Let me know recorded log10(koff) for H1H14523P (antibody, human IgG1, V domains shown, human IgG1 (H1H)) VH: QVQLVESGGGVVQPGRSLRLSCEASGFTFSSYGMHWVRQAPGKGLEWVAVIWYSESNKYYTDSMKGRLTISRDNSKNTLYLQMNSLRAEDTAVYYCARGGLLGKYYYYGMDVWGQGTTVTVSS VL: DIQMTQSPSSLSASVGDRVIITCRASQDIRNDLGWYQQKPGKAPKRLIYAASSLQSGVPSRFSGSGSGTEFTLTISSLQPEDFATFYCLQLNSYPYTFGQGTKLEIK , thanks.
-3.92

Kindly indicate its recorded log10(koff). Item: H4H14469P (antibody, human IgG4, V domains shown, human IgG4 (H4H)) VH: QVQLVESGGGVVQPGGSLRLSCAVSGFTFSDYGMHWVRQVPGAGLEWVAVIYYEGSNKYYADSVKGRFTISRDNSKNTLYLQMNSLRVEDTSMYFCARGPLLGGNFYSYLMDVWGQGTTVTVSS VL: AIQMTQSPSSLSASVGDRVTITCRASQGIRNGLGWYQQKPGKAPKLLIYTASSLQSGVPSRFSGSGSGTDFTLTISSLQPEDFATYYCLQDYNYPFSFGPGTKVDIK
-3.40

Indicate the recorded log10(koff) value for this binder: H4H14475P (antibody, human IgG4, V domains shown, human IgG4 (H4H)) VH: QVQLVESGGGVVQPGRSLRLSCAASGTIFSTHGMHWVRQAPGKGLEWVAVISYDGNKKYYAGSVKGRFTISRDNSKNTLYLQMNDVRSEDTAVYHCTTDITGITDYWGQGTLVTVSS VL: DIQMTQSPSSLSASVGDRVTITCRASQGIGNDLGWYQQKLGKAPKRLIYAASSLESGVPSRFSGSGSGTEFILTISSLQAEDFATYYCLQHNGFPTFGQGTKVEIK
-2.87

Complete the entry with log10(koff) for H4H14525P (antibody, human IgG4, V domains shown, human IgG4 (H4H)) VH: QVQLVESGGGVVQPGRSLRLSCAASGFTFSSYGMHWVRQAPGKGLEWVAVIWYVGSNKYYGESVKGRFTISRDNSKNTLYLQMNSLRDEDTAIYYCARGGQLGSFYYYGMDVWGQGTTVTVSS VL: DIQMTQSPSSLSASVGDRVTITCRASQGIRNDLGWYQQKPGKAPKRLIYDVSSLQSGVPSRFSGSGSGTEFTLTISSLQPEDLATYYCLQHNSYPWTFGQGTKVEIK
-3.47

Please give the documented log10(koff) of H1H14474P (antibody, human IgG1, V domains shown, human IgG1 (H1H)) VH: QVQLVESGGGVVQPGRSLRLSCAASGFTFSSYGMDWVRQAPGKGLEWVAVIWYPGSNKYYADSVKGRFTVSRDNSKNTLYLQMNSLRAEDTAVYYCARDGELGLDYYSGMDVWGQGTTVTVSS VL: DIQMTQSPSSLSASVGDRVTITCRASQGIRNDLNWYQQKPGKAPKRLINGASSLQSGVPSRFSGSGSGTEFTLTISSLQPEDFATYYCLQLNSYPRTFGQGTKVEIK
-3.89

Give the value of log10(koff) reported for the following: H1H14503P (antibody, human IgG1, V domains shown, human IgG1 (H1H)) VH: QVQLVESGGGVVQPGRSLRLSCEASGFTFSNYGFHWVRQAPGKGLDWVAVIWYAGSNKFYVDSVQGRFTISRDNSKQILFLQMNSLRAEDSAVYYCVRGGILGIDYYSGMDVWGQGTTVTVSS VL: AIQMTQSPSSLSASVGDRVTITCRASQDIRNDLGWYQQRPGKAPKFLIYSTSSLQSGVPSRFSGSGSGTDFILTISSLQPEDFATYYCLQSHNYPWTFGHGTKVEIK
-3.81
